Assay procedure: NCI Yeast Anticancer Drug Screen. Data for the bub3 strain (AID 167)
Measurement setup: S. cerevisiae bub3 mutant strain, at 50.0 µM (retest, dose inferred, filed as 5.0)
The panel holds about 79,000 compounds, 15% with a hit somewhere; the sample as a whole holds those more often. The source made the active and inactive calls. No stated cut-off is given here; in the data, active means growth inhibition above about 70%; inactive means the rest.
Parameter call: string, one of TRUE (active), FALSE (inactive)

- O=C1NC(c2cccc(OCc3ccccc3)c2)Nc2ccccc21 (stereo unspecified): FALSE
- CC(C)S(=O)(=O)/C=C\S(=O)(=O)C(C)C: TRUE
- O=C(NOC(=O)c1ccc([N+](=O)[O-])cc1)c1ccc(Cl)cc1: TRUE
- O=C(NCCCCN1CC2CCCC2C1)C(C1CCCCC1)C1CCCCC1 (stereo unspecified): TRUE
- O=C1c2ccccc2-c2cc3ccccc3c(=O)n21: FALSE

Q: Assay outcome for `O=S(=O)(c1ccccc1)N1CN2CN(C1)CN(S(=O)(=O)c1ccccc1)C2` : what was it?
Ans: FALSE

Q: Assay outcome for `CC(=O)O/N=C1C=C/C(=C(/C#N)c2ccccc2)C=C/1C` : what was it?
Ans: TRUE

Q: Assay outcome for `COc1c2c(c3c(c1CCC(=O)O)OC(C)(C)C=C3)OC(C)(C)C=C2` : what was it?
Ans: FALSE

Q: Assay outcome for CC(CC/C(=N/O)c1ccccc1)(CC/C(=N\O)c1ccccc1)[N+](=O)[O-] (stereo unspecified) : what was it?
Ans: FALSE

Q: Assay outcome for C=C(C(=O)OC)N1C(=O)CC(C)C1=O (stereo unspecified) : what was it?
Ans: TRUE

Q: Assay outcome for `NNc1ccccc1-c1nc2ccccc2[nH]1` : what was it?
Ans: FALSE

Q: Assay outcome for `CCOC(=O)Nc1ccc(C)c(NC(=O)OCC)c1` : what was it?
Ans: TRUE
